Numbers sourced from ChEMBL document CHEMBL5058577.

- Tested on: U2OS
- Experiment Description: Multiplex assay against U2OS
- Assay type: toxicity, cell-based
- Particulars: human, 48 h, 10 µM, compound concentration 10 uM, replicate 1
Think of 2% as a floor: if Population Mitochondria Different-Phenotype (%) stands on it or above, it is rule met; beneath it, rule not met.

Substance Smiles	Label
NCCc1cn(S(=O)(=O)c2c(Cl)nc3sccn23)c2ccccc12.O=C(O)C(=O)O	rule met
CN(C)C(=O)Cn1cc(-c2ccc(-c3cncc4ccccc34)cc2)cn1	rule met
CCCCC1=NC2(CCCC2)C(=O)N1Cc1ccc(-c2ccccc2-c2nnn[nH]2)cc1	rule met

Input: Does the reported Population Mitochondria Different-Phenotype (%) for CC[C@@H](C)Nc1nc(C)nc2c(-c3ccc(OC)nc3C)c(C)nn12 fall at or above the 2% mark?
Output: rule not met

Input: Form field: Population Mitochondria Different-Phenotype (%) at least 2%? Entry: C[C@H](N)COC(=O)[C@@H](CCCCN)NC(=O)Cc1c(-c2ccc3ccccc3c2)[nH]c2c1ccc1ccccc12
Output: rule not met

###

- Tested on: U2OS
- Experiment Description: Multiplex assay against U2OS
- Assay type: toxicity, cell-based
- Particulars: human, 12 h, 1 µM, compound concentration 1 uM, replicate 2
Value Kind: Population Normal (%)
Could you kindly put the unit after your number?

Compound	Value Kind	Result
CC(=O)Nc1cccc2c1c(Sc1ccc(Cl)cc1)c(C)n2CC(=O)O [AZD1981]	Population Normal (%)	98%
CC(C)COc1ccc(CNC(=O)N(Cc2ccc(F)cc2)C2CCN(C)CC2)cc1 [PIMAVANSERIN]	Population Normal (%)	99%
N#Cc1cc(F)cc(-c2nc(-c3ccc(F)cn3)no2)c1	Population Normal (%)	99%
N#Cc1c(Oc2cccc(OS(=O)(=O)CCCC(F)(F)F)c2)cccc1C(F)(F)F	Population Normal (%)	99%
CCCCC1=NC2(CCCC2)C(=O)N1Cc1ccc(-c2ccccc2-c2nnn[nH]2)cc1 [IRBESARTAN]	Population Normal (%)	99%

// sample Cl.NCCc1ccc(O)c(O)c1 [DOPAMINE HYDROCHLORIDE] , its Population Normal (%) was 98%

###

- System: HEK-293T
- Experiment Description: Multiplex assay against HEK293T
- Assay type: toxicity, cell-based
- Particulars: human, 12 h, 10 µM, compound concentration 10 uM, replicate 2
Would you mind classing the entries by Population Apoptotic (%)? Ranges: low bin: < 40%; mid bin: ≥ 40% and < 60%; high bin: ≥ 60%

Compound	Label
Cl.NCCc1ccc(O)c(O)c1 [DOPAMINE HYDROCHLORIDE]	low bin

Input: Categorize the following entry: Cc1sc2c(c1C)C(c1ccc(Cl)cc1)=N[C@@H](CC(=O)NCCCCCCCCNC(=O)COc1cccc3c1C(=O)N(C1CCC(=O)NC1=O)C3=O)c1nnc(C)n1-2 (stereo partly specified)
Output: mid bin

Input: Categorize the following entry: N#Cc1c(Oc2cccc(OS(=O)(=O)CCCC(F)(F)F)c2)cccc1C(F)(F)F
Output: mid bin

###

- System: HEK-293T
- Experiment Description: Multiplex assay against HEK293T
- Format: toxicity, cell-based
- Particulars: human, 48 h, 1 µM, compound concentration 1 uM, replicate 2
# Population Normal (%) per entry
Report only the number, with the unit % understood.

Solved cases below.
Compound	Value Units	Numeric Readout
CCCCC(=O)N(Cc1ccc(-c2ccccc2-c2nnn[nH]2)cc1)[C@H](C(=O)O)C(C)C	%	96
CCCCC1=NC2(CCCC2)C(=O)N1Cc1ccc(-c2ccccc2-c2nnn[nH]2)cc1	%	97
CCCOc1ccc2[nH]cc(C3=CCNCC3)c2n1.Cl	%	98
O=C1[C@H](Cc2ccc(O)cc2)N2C(=O)CCN(C(=O)NCc3ccccc3)[C@H]2CN1Cc1cccc2ccccc12	%	96
CN1CCN(c2cc(-c3ccccc3)nc(N)n2)CC1	%	97

Record CCCCCC(O)/C=C/[C@H]1C(=O)CC(O)C1C/C=C\CCCC(=O)O (some centres undefined) / HEK-293T, Population Normal (%) recorded as 96

Population Normal (%) of CCc1cc2cc(NS(=O)(=O)c3ccc(C#N)cc3)ccc2n(CC)c1=O , assay on HEK-293T, is 95

Summary line: CN[C@@H](C)C(=O)N[C@H](C(=O)N1CCC[C@H]1C(=O)Nc1snnc1-c1ccccc1)C1CCCCC1 , HEK-293T, reported Population Normal (%) = 96

Population Normal (%) of Br.CS(=O)(=O)Nc1c(O)ccc2c1CCCC2C1=NCCN1 (centres undefined) , assay on HEK-293T, is 93

###

Reported Population Pyknosed Nuclei (%) is given for each of the following molecules.
- Test system: Fibroblast
- Experiment Description: Multiplex assay against human fibroblast
- Assay type: toxicity, cell-based
- Particulars: 48 h, 1 µM, compound concentration 1 uM, replicate 2
Entry rule: numbers only, all in %.

Field: example entries. Status: answers known.
Molecule	Value Kind	Numeric Readout
CC(C)c1noc(N2CCC(COc3ccc(-c4ccc(S(C)(=O)=O)cc4)nc3)CC2)n1 [GSK-1292263]	Population Pyknosed Nuclei (%)	24
CCCCC(=O)N(Cc1ccc(-c2ccccc2-c2nnn[nH]2)cc1)[C@H](C(=O)O)C(C)C	Population Pyknosed Nuclei (%)	21
O=C(CCCc1ccccc1)Nc1nc2ccccc2c(=O)s1	Population Pyknosed Nuclei (%)	15
CCCOc1ccc2[nH]cc(C3=CCNCC3)c2n1.Cl	Population Pyknosed Nuclei (%)	9
CN(C)C(=O)Cn1cc(-c2ccc(-c3cncc4ccccc34)cc2)cn1	Population Pyknosed Nuclei (%)	22

What the record says about Cc1onc(-c2ccccc2Cl)c1C(=O)N(C)c1ccc(Cl)cc1 : Population Pyknosed Nuclei (%) is 17

Measured Population Pyknosed Nuclei (%) of CN[C@@H](C)C(=O)N[C@H](C(=O)N1CCC[C@H]1C(=O)Nc1snnc1-c1ccccc1)C1CCCCC1 [GDC-0152] : 17

For this molecule ( Cc1sc2c(c1C)C(c1ccc(Cl)cc1)=N[C@@H](CC(=O)NCCCCCCCCNC(=O)COc1cccc3c1C(=O)N(C1CCC(=O)NC1=O)C3=O)c1nnc(C)n1-2 (stereo partly drawn) ), measured Population Pyknosed Nuclei (%) is 20

CC(=O)Nc1cccc2c1c(Sc1ccc(Cl)cc1)c(C)n2CC(=O)O [AZD1981] yielded Population Pyknosed Nuclei (%) of 11

###

- Test system: HEK-293T
- Experiment Description: Multiplex assay against HEK293T
- Type: toxicity, cell-based
- Particulars: human, 48 h, 1 µM, compound concentration 1 uM, replicate 2
Binarize Population Hoechst High Intensity Objects (%) at 4%; below is 1, at or above is 0.

# count of solved cases: 3
Compound	Label
Cc1sc2c(c1C)C(c1ccc(Cl)cc1)=N[C@@H](CC(=O)NCCCCCCCCNC(=O)COc1cccc3c1C(=O)N(C1CCC(=O)NC1=O)C3=O)c1nnc(C)n1-2 (stereo not given in full)	0
CN(C)C(=O)Cn1cc(-c2ccc(-c3cncc4ccccc34)cc2)cn1	0
CC(=O)Nc1cccc2c1c(Sc1ccc(Cl)cc1)c(C)n2CC(=O)O	1

Input: I wonder whether CCCOc1ccc2[nH]cc(C3=CCNCC3)c2n1.Cl has Population Hoechst High Intensity Objects (%) below 4%. Can you tell?
Output: 1

###

- System: Fibroblast
- Experiment Description: Multiplex assay against human fibroblast
- Format: toxicity, cell-based
- Particulars: 48 h, 1 µM, compound concentration 1 uM, replicate 2
Value Kind: Population Membrane Permeable-Phenotype (%)
Return type: number; implicit unit %.

Recorded results for 2 molecules are shown here.
Substance Smiles	Numeric Readout
Cc1cccc(NC(=O)CN2CCC(c3ccccn3)CC2)c1.Cl.Cl	4
Cc1c(CC(=O)O)c2cccnc2n1Cc1ccc(S(C)(=O)=O)cc1C(F)(F)F	4

Data point: O=C(CCCc1ccccc1)Nc1nc2ccccc2c(=O)s1 ; Population Membrane Permeable-Phenotype (%) = 4

###

Form field: Population Membrane Permeable-Phenotype (%) (one value per entry).
- Tested on: U2OS
- Experiment Description: Multiplex assay against U2OS
- Type: toxicity, cell-based
- Particulars: human, 24 h, 1 µM, compound concentration 1 uM, replicate 1
// units = %; emit number, no label

Reference set (4 entries):
Compound	Numeric Readout
CC[C@@H](C)Nc1nc(C)nc2c(-c3ccc(OC)nc3C)c(C)nn12	5
NCCc1cn(S(=O)(=O)c2c(Cl)nc3sccn23)c2ccccc12.O=C(O)C(=O)O	6
Cc1cnc(-c2cc(N3CCN(C(=O)CCS(C)(=O)=O)CC3)ncc2Cl)c(C)c1	5
CC(C)COc1ccc(CNC(=O)N(Cc2ccc(F)cc2)C2CCN(C)CC2)cc1	10

The recorded Population Membrane Permeable-Phenotype (%) for entry CCCCC1=NC2(CCCC2)C(=O)N1Cc1ccc(-c2ccccc2-c2nnn[nH]2)cc1 equals 6

For this compound ( O=C(NCCN1CCC(n2c(=O)[nH]c3cc(Cl)ccc32)CC1)c1ccc(F)cc1 [HALOPEMIDE] ), measured Population Membrane Permeable-Phenotype (%) is 6

The reported value for Cc1noc(-c2ccc(-c3ccc(CC(=O)O)cc3)cc2)c1NC(=O)O[C@H](C)c1ccccc1Cl in terms of Population Membrane Permeable-Phenotype (%) is 5

get_value(item= O=C(CCCc1ccccc1)Nc1nc2ccccc2c(=O)s1 , readout=Population Membrane Permeable-Phenotype (%)) returns 4

So, CC(=O)Nc1cccc2c1c(Sc1ccc(Cl)cc1)c(C)n2CC(=O)O ? Its Population Membrane Permeable-Phenotype (%) was 5

Record CN[C@@H](C)C(=O)N[C@H](C(=O)N1CCC[C@H]1C(=O)Nc1snnc1-c1ccccc1)C1CCCCC1 . Reported Population Membrane Permeable-Phenotype (%): 20
